# assay_remarks: Effect on locomotory activity in STZ-induced mouse model of Alzheimer's disease assessed as number of crossing 30 mg/kg, ip treated from 3 to 12 days by open field test (reference value: 114.00 +/- 3.12)
# Type: organism-based
# assay_conditions: in vivo, time 3-12 day

record_smiles | Activity
Cc1cc(S(=O)(=O)NN)c(C(C)C)cc1O | 98.45
Cc1cc(S(=O)(=O)Nc2cnccn2)c(C(C)C)cc1O | 108.34
Cc1cc(S(=O)(=O)Nc2ccccc2O)c(C(C)C)cc1O | 107
Cc1cc(S(=O)(=O)NCc2ccccn2)c(C(C)C)cc1O | 102.45
Cc1cc(S(=O)(=O)N2CCOCC2)c(C(C)C)cc1O | 116.3

---

# assay_remarks: Effect on behavioral activity in STZ-induced mouse model of Alzheimer's disease assessed as rearing at 30 mg/kg, ip treated from 3 to 12 days by open field test (reference value: 53.60 +/- 1.62)
# Type: ADME, organism-based
# assay_conditions: in vivo, time 3-12 day

record_smiles | Activity
Cc1cc(S(=O)(=O)Nc2cnccn2)c(C(C)C)cc1O | 50.17
Cc1cc(S(=O)(=O)Nc2ccccc2O)c(C(C)C)cc1O | 44.56
Cc1cc(S(=O)(=O)NCc2ccccn2)c(C(C)C)cc1O | 46.17
Cc1cc(S(=O)(=O)NN)c(C(C)C)cc1O | 44.18
Cc1cc(S(=O)(=O)N2CCOCC2)c(C(C)C)cc1O | 43.8

---

What follows is a record of IC50 for Acetylcholinesterase (Homo sapiens, UniProt P22303).

record_smiles | IC50
Cc1cc(S(=O)(=O)Nc2cnccn2)c(C(C)C)cc1O | 7.34 µM
Cc1cc(S(=O)(=O)NN)c(C(C)C)cc1O | 9.24 µM
Cc1cc(S(=O)(=O)N2CCOCC2)c(C(C)C)cc1O | 5.64 µM
Cc1cc(S(=O)(=O)Nc2ccccc2O)c(C(C)C)cc1O | 8.74 µM
Cc1ccc(C(C)C)cc1O | 284 µM
Cc1cc(S(=O)(=O)NCc2ccccn2)c(C(C)C)cc1O | 6.99 µM

---

Below is a list of entries, each paired with its recorded Time value.
# Tested on: Mus musculus
# assay_remarks: Antialzheimer activity in streptozotocin-induced mouse model of memory impairment assessed as median time of avoidance latency descent at 30 mg/kg, ip treated from 3 to 12 days starting from 3 days post initial STZ stimulation and measured on day 16 by avoidance test (reference value: 14 sec)
# Type: functional
# assay_conditions: time 3-12 day
measurement_name: Time (s)

record_smiles | readout_value
Cc1cc(S(=O)(=O)N2CCOCC2)c(C(C)C)cc1O | 116.5
Cc1cc(S(=O)(=O)NN)c(C(C)C)cc1O | 130
Cc1cc(S(=O)(=O)Nc2ccccc2O)c(C(C)C)cc1O | 107
Cc1cc(S(=O)(=O)NCc2ccccn2)c(C(C)C)cc1O | 72
Cc1cc(S(=O)(=O)Nc2cnccn2)c(C(C)C)cc1O | 80
